- Tested on: EKVX NSCLC
- Assay Method Text: NCI tumour cell line growth inhibition, 48 h; in the data active = GI50 below about 0.43 µM; inactive = the rest
API: response.call in T = active, F = inactive

Observe how each entry below is paired with its result.
Compound | Class Assignment
COc1ccc(-c2ccc(/C=N/n3c(COc4ccc(Cl)cc4Cl)nn(CN4CCOCC4)c3=S)o2)c([N+](=O)[O-])c1 | F
COc1ccc(-c2nn3c(-c4cc(F)c(Cl)cc4Cl)nnc3s2)cc1 | F
Oc1cccc2ccc(N/N=C/c3cc(CN4CCCCC4)c(O)c4ncccc34)nc12 | T

Field: outcome | Entry: CC1SC(c2ccccc2)N(CCc2cccs2)C1=O (stereo unspecified) F

Field: outcome | Entry: `COc1ccc2sc3c(NCCCN(C)C)nc4ccccc4c3c(=O)c2c1` F

Field: outcome | Entry: `CCCCCCCCN=C(N)c1ccc(N2CCN(c3ccc(C(N)=NCCCCCCCC)cc3)CC2)cc1` F

Field: outcome | Entry: `CCOC(=O)c1cc(NS(=O)(=O)c2ccccc2)cc(C(=O)OCC)c1` F

Field: outcome | Entry: Nc1nc2c(c3ncncc13)C(c1cccc(C(F)(F)F)c1)Cc1ncncc1-2 (stereo unspecified) F

Field: outcome | Entry: CC(CCC(=O)O)[C@H]1CCC2[C@@H]3CC[C@@H]4CC(O)CC[C@]4(C)C3CC[C@@]21C (stereo partly specified) F

Field: outcome | Entry: `NCCn1c(=O)[nH]c(=O)[nH]c1=S` F

Field: outcome | Entry: `Nc1ccccc1C#C/C=C\C#Cc1cccs1` F

###

- Tested on: UO-31 renal
- Assay Method Text: NCI tumour cell line growth inhibition, 48 h
Reported TGI values for the following compounds.
# output: bare number, implied unit µM

Compound | TGI / µM
CCCC(C)c1cc(Cc2cc(Cl)cc(Cl)c2O)c(O)c(Cc2cc(Cl)cc(Cl)c2O)c1 (centres undefined) | 10.2
C/C(=N/NC(=S)Nc1ccc([N+](=O)[O-])cc1)c1cccc(/C(C)=N\NC(=S)Nc2ccc([N+](=O)[O-])cc2)n1 | 4.97
O=C(N/C(=C\c1ccc2c(c1)OCO2)c1nc2ccccc2[nH]1)c1ccccc1 | 99.8

# next compound below
Look up TGI for this compound: COC(O)C(=O)c1c2c(cc3c1CC1(Cc4cc5c(cc4C1)CCC5)C3)CCC2 (centres undefined) 35.8

###

Reported TGI values for the following compounds.
- System: SK-MEL-5 melanoma
- Assay Method Text: NCI tumour cell line growth inhibition, 48 h

Sample records with TGI:
Compound | Tgt | Recorded Endpoint | Value Reported
COc1cc2c(c(OC)c1)C1c3ccccc3NC(=O)N1CC2 (centres undefined) | SK-MEL-5 melanoma | TGI | 15.3 µM
CCC1NC(=O)C1NC(=O)OC (centres undefined) | SK-MEL-5 melanoma | TGI | > 100 µM
CS(=O)(=O)N1CC(CCl)c2ccc([N+](=O)[O-])cc21 (centres undefined) | SK-MEL-5 melanoma | TGI | > 100 µM
C#CCOCn1cnc2c(Cl)ncnc21 | SK-MEL-5 melanoma | TGI | > 100 µM
NCCn1c(=O)[nH]c(=O)[nH]c1=S | SK-MEL-5 melanoma | TGI | > 100 µM
COC(O)C(=O)c1c2c(cc3c1CC1(Cc4cc5c(cc4C1)CCC5)C3)CCC2 (centres undefined) | SK-MEL-5 melanoma | TGI | 31.3 µM

Look up TGI for this compound: `CCCCCCCCCCCC(=O)Oc1c(Cl)cc(Cl)c(OC(=O)C(=O)Oc2c(Cl)cc(Cl)c(OC(=O)CCCCCCCCCCC)c2Cl)c1Cl` > 100 µM

Look up TGI for this compound: `CC(=O)N1C(=O)/C(=C\C(=O)c2ccc([N+](=O)[O-])cc2)c2ccccc21` > 100 µM

Look up TGI for this compound: `O=C(O)/C=C\C(=O)N1C/C(=C\c2ccccc2Cl)C(=O)/C(=C/c2ccccc2Cl)C1` 12 µM

###

- Tested on: NCI-H522 lung
- Assay Method Text: NCI tumour cell line growth inhibition, 48 h
Reported TGI values for the following compounds.
# output: bare number, implied unit µM

Compound | TGI (µM)
CN1CC[C@@]2(c3cccc(O)c3)CC(=O)/C(=C/c3ccccc3)[C@H]1C2 | 20

Look up TGI for this compound: `O=C(O)/C=C\C(=O)N1C/C(=C\c2ccccc2Cl)C(=O)/C(=C/c2ccccc2Cl)C1` 4.1

Look up TGI for this compound: CC(=O)CCCCC(=O)Nc1ccc(CC(NC(=O)OC(C)(C)C)C(=O)NCC(=O)OCc2ccccc2)cc1 (stereo not given) 57.9

Look up TGI for this compound: `C=CCC[CH2][Sn]([c]1ccccc1)([c]1ccccc1)[c]1ccccc1` 2.49

###

- Test system: KM12 colon
- Assay Method Text: NCI tumour cell line growth inhibition, 48 h; in the data active means GI50 below about 0.43 µM; inactive means the rest
API: response.call in active, inactive

Observe how each entry below is paired with its result.
Compound | Class Assignment
CC[C@@H](C(=O)O)C1CC[C@H](C)C([C@@H](C)[C@H](O)[C@H](C)C(=O)[C@H](CC)C2O[C@]3(C=C[C@@H](O)[C@]4(CC[C@@](C)(C5CC[C@](O)(CC)[C@H](C)O5)O4)O3)[C@H](C)C[C@@H]2C)O1 (stereo partly drawn) | inactive
CN(C)CCNc1c2c(c(NCCN(C)C)c3[nH]ccc13)C(=O)c1ccccc1C2=O | active

Now take the following compound into account.
Field: outcome | Entry: `N#Cc1c(N2CCCC2)[nH]c(=O)c(C(c2c(Cl)cccc2Cl)c2c(O)c(C#N)c(N3CCCC3)[nH]c2=O)c1O` inactive

###

- Tested on: SN12C renal
- Assay Method Text: NCI tumour cell line growth inhibition, 48 h
Recorded Endpoint: TGI (µM)
# output: bare number, implied unit µM

Smiles Code | Value Reported
Cc1cccc2nc3c(C(=O)NCCN(C)C)cccc3cc12 | 5.98
COc1ccc(-c2ccc(/C=N/n3c(COc4ccc(Cl)cc4Cl)nn(CN4CCOCC4)c3=S)o2)c([N+](=O)[O-])c1 | 67.7

# next compound below
Look up TGI for this compound: `CCOC(=O)c1ccc(N=C2C(=S)N(c3ccc(C(=O)OCC)cc3)C(=N)N2/N=C/c2ccccc2)cc1` 41.3

###

- Test system: SNB-19 CNS
- Assay Method Text: NCI tumour cell line growth inhibition, 48 h
Recorded Endpoint: TGI

Sample records with TGI:
Compound | TGI
CCC1NC(=O)C1NC(=O)OC (centres undefined) | > 100 µM
CCOC(=O)c1c(N2CCCC2)nsc1Nc1ccc(F)cc1 | > 100 µM

Reported TGI for SNB-19 CNS, given `CCCNC1=C(C(=O)OCC)C(=O)CO1` ? > 100 µM

Reported TGI for SNB-19 CNS, given `C[n+]1c2ccccc2c(C(=O)Nc2ccc(S(=O)(=O)Nc3ccnn3-c3ccccc3)cc2)c2ccccc21` ? > 100 µM

Reported TGI for SNB-19 CNS, given N=c1c2c(C(N)=O)cn(C3OC(CO)C(O)C3O)c2ncn1O (centres undefined) ? > 100 µM

###

Reported TGI values for the following compounds.
- Tested on: TK-10 renal
- Assay Method Text: NCI tumour cell line growth inhibition, 48 h

Look up TGI for this compound: `Cc1nc(N)nc(N)c1-c1ccc(Cl)c(Cl)c1` > 51.9 µM

Look up TGI for this compound: `C=CCOc1ccc(/C(N=Nc2ccc(Cl)cc2)=N/NC(=O)c2ccccc2)cc1OC` > 100 µM

Look up TGI for this compound: `C/C(=N\NS(=O)(=O)c1ccccc1)c1ccc(Cl)c(Cl)c1` > 100 µM

Look up TGI for this compound: `CCOC(=O)c1cc(NS(=O)(=O)c2ccccc2)cc(C(=O)OCC)c1` > 100 µM

###

- Test system: CAKI-1 renal
- Assay Method Text: NCI tumour cell line growth inhibition, 48 h
Recorded Endpoint: GI50

Sample records with GI50:
Smiles Code | GI50
CN1CCC(n2cnc(-c3ccc(F)cc3)c2-c2ccnc(NCCO)n2)CC1 | > 17900 nM
Oc1cccc2ccc(N/N=C/c3cc(CN4CCCCC4)c(O)c4ncccc34)nc12 | 309 nM
Nc1ccccc1C#C/C=C\C#Cc1cccs1 | 3750 nM
COc1ccc(-c2csc(N(C(=O)N3CCN(c4cc5c(cc4F)c(=O)c(C(=O)O)cn5C4CC4)CC3)c3ccccc3)n2)cc1 | 2460 nM

# next compound below
Look up GI50 for this compound: `C=CCOc1cccc(/C=C2\SC(=Nc3ccc(O)cc3)NC2=O)c1` 466 nM

###

Reported TGI values for the following molecules.
- Tested on: UACC-62 melanoma
- Assay Method Text: NCI tumour cell line growth inhibition, 48 h

Sample records with TGI:
Molecule | Value Reported
CN1CCC(n2cnc(-c3ccc(F)cc3)c2-c2ccnc(NCCO)n2)CC1 | > 25 µM
O=C(NCCCCCCNC(=O)n1cc(F)c(=O)[nH]c1=O)NCCCOCCOCCOCCOCCOCCOCCOCCOCCOCCOCCOCCOCCOCCOCCOCCOCCOCCOCCOCCOCCOCCCNC(=O)C(O)C(O)C(O)C(O)CO (centres undefined) | > 100 µM
COc1ccc(OCc2nc3cc(C(F)(F)F)ccc3nc2-c2ccccc2)cc1 | > 100 µM
O=C1C(Br)=CC2(C=C1Br)CCNC1=C2C(=O)c2ccccc2C1=O | 29.6 µM
CCOC(=O)c1c(N)sc2c1C(C(=O)OCC)CC2 (centres undefined) | > 100 µM

Look up TGI for this molecule: CC1C=C(OC(=O)c2ccccc2)C(=O)C(n2cc(F)c(=O)[nH]c2=O)O1 (centres undefined) > 100 µM

Look up TGI for this molecule: CCCC(C)c1cc(Cc2cc(Cl)cc(Cl)c2O)c(O)c(Cc2cc(Cl)cc(Cl)c2O)c1 (centres undefined) 4.2 µM

Look up TGI for this molecule: `O=C1c2cccnc2C(=O)c2nc3cc(N4CCN(C5CC5)CC4)ccc3nc21` 0.631 µM

Look up TGI for this molecule: `N=C(N)c1ccc(-c2ccc(-c3cc(Cl)cc(Cl)c3)o2)nc1` 3.36 µM

Look up TGI for this molecule: O=C(C1OC1c1ccc(O)cc1)C12CC3CC(CC(C3)C1)C2 (centres undefined) > 100 µM

Look up TGI for this molecule: `O=c1cc(NNc2ccccc2)[nH]c(=S)[nH]1` > 100 µM

Look up TGI for this molecule: CS(=O)(=O)N1CC(CCl)c2ccc([N+](=O)[O-])cc21 (centres undefined) > 100 µM

Look up TGI for this molecule: `COC(=O)[C@@]1(C)CC[C@]2(C)CC[C@]3(C)C4=CC=C5C(=CC(=O)C(O)=C5C)[C@]4(C)[C@@H](O)C[C@@]3(C)[C@@H]2C1` 18.9 µM

Look up TGI for this molecule: `CCN(CC)c1ccc(C(=O)c2ccccc2C(=O)O)c(O)c1` > 100 µM

Look up TGI for this molecule: `O=S(=O)(O)c1ccc(O)c2ncc(Cl)cc12` > 100 µM

Look up TGI for this molecule: `Nc1ncnc2ccc(Sc3ccc4ncnc(N)c4c3)cc12` > 100 µM

Look up TGI for this molecule: CC(CCC(=O)O)[C@H]1CCC2[C@@H]3CC[C@@H]4CC(O)CC[C@]4(C)C3CC[C@@]21C (some centres undefined) > 100 µM

Look up TGI for this molecule: CC(=O)OCC1OC(OC2C(CSC3OC(COC(C)=O)C(OC(C)=O)C(OC(C)=O)C3OC(C)=O)OC(OC(C)=O)C(OC(C)=O)C2OC(C)=O)C(OC(C)=O)C(OC(C)=O)C1OC(C)=O (centres undefined) > 100 µM

Look up TGI for this molecule: `COc1cccc2c1c(C(=O)C(=O)Nc1cc(C)no1)cn2Cc1ccc(F)cc1` > 100 µM
